The following molecules are shown together with reported Bmax, Era values.
# System tested: Era (Staphylococcus aureus, UniProt Q2FGF6)
# Sequence (Q2FGF6 whole entry): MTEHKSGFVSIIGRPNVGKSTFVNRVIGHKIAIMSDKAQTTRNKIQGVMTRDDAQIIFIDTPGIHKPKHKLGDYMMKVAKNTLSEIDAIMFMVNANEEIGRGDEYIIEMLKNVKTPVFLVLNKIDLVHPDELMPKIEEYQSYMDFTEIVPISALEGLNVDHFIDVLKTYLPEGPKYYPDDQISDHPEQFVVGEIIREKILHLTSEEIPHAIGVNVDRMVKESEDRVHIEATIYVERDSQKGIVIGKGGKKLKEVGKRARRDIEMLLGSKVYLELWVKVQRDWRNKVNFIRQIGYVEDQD
# Assay remarks: DRaCALA binding of 32P-labeled nucleotides to 6×His-tagged Era
# Condition details: mean ± SEM; Bmax values indicate the fraction bound
Output: the number by itself.

Query smiles: Nc1nc2c(ncn2[C@@H]2O[C@H](COP(=O)(O)OP(=O)(O)OP(=O)(O)O)[C@@H](O)[C@H]2O)c(=O)[nH]1
Bmax, Era: 0.3

Note to self: Bmax, Era recorded for Nc1nc2c(ncn2[C@@H]2O[C@H](COP(=O)(O)OP(=O)(O)OP(=O)(O)O)[C@@H](OP(=O)(O)OP(=O)(O)O)[C@H]2O)c(=O)[nH]1 was 0.2

Note to self: Bmax, Era recorded for Nc1nc2c(ncn2[C@@H]2O[C@H](COP(=O)(O)OP(=O)(O)O)[C@@H](OP(=O)(O)OP(=O)(O)O)[C@H]2O)c(=O)[nH]1 was 0.4

Note to self: Bmax, Era recorded for Nc1nc2c(ncn2[C@@H]2O[C@H](COP(=O)(O)OP(=O)(O)O)[C@@H](O)[C@H]2O)c(=O)[nH]1 was 0.5

====

# System tested: RbgA (Staphylococcus aureus, UniProt A0A0H2XK72)
# Sequence (A0A0H2XK72 entry or part of it): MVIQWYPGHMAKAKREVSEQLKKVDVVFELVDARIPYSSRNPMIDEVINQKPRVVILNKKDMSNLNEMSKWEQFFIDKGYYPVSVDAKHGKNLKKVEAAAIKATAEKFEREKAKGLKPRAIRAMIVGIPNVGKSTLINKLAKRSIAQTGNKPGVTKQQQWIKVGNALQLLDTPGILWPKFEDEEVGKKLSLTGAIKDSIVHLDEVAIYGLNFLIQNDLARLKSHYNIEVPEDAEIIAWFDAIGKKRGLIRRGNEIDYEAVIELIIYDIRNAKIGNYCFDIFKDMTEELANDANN
# Assay remarks: DRaCALA binding of 32P-labeled nucleotides to 6×His-tagged RbgA
Recorded metric: pKd
The value called pKd is obtained by taking minus log10 of the concentration in mol/L.

Query smiles: Nc1nc2c(ncn2[C@@H]2O[C@H](COP(=O)(O)OP(=O)(O)O)[C@@H](O)[C@H]2O)c(=O)[nH]1
Recorded metric: pKd
Observed result: 5.21

Note to self: pKd recorded for Nc1nc2c(ncn2[C@@H]2O[C@H](COP(=O)(O)OP(=O)(O)OP(=O)(O)O)[C@@H](OP(=O)(O)OP(=O)(O)O)[C@H]2O)c(=O)[nH]1 was 4.86

Note to self: pKd recorded for Nc1nc2c(ncn2[C@@H]2O[C@H](COP(=O)(O)OP(=O)(O)OP(=O)(O)O)[C@@H](O)[C@H]2O)c(=O)[nH]1 was 4.73

====

# System tested: Era (Staphylococcus aureus, UniProt Q2FGF6)
# Assay remarks: DRaCALA binding of 32P-labeled nucleotides to 6×His-tagged Era
The following molecules are shown together with reported pKd values.
The value called pKd is obtained by taking minus log10 of the concentration in mol/L.

Some solved cases for reference:
Query smiles: Nc1nc2c(ncn2[C@@H]2O[C@H](COP(=O)(O)OP(=O)(O)O)[C@@H](O)[C@H]2O)c(=O)[nH]1
pKd: 5.31
--
Query smiles: Nc1nc2c(ncn2[C@@H]2O[C@H](COP(=O)(O)OP(=O)(O)OP(=O)(O)O)[C@@H](O)[C@H]2O)c(=O)[nH]1
pKd: 4.94

Note to self: pKd recorded for Nc1nc2c(ncn2[C@@H]2O[C@H](COP(=O)(O)OP(=O)(O)OP(=O)(O)O)[C@@H](OP(=O)(O)OP(=O)(O)O)[C@H]2O)c(=O)[nH]1 was 4.86

====

# System tested: RbgA (Staphylococcus aureus)
# Assay remarks: DRaCALA binding of 32P-labeled nucleotides to 6×His-tagged RbgA
# Condition details: mean ± SEM; 32P-labeled nucleotide, 6×His-tagged protein; read-out: Kd, RbgA
Recorded metric: pKd
The value called pKd is obtained by taking minus log10 of the concentration in mol/L.

Note to self: pKd recorded for Nc1nc2c(ncn2[C@@H]2O[C@H](COP(=O)(O)OP(=O)(O)O)[C@@H](OP(=O)(O)OP(=O)(O)O)[C@H]2O)c(=O)[nH]1 was 5.54

====

# System tested: HflX (Staphylococcus aureus)
# Sequence (Q2FYY9 entry or part of it): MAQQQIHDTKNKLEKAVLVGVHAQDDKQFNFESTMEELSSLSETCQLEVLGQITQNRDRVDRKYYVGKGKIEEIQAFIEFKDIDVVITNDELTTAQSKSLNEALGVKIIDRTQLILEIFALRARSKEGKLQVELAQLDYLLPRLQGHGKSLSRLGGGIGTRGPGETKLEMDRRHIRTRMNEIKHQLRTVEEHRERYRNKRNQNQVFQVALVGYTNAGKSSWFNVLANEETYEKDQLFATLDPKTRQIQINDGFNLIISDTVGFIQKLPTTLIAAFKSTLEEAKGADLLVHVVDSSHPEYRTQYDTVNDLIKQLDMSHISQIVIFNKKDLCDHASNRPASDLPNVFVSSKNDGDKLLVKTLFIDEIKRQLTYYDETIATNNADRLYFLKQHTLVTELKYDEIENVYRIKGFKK
# Assay remarks: DRaCALA binding of 32P-labeled nucleotides to 6×His-tagged HflX
Recorded metric: Kd (µM)
Give a bare numeral; the unit µM is implied.

Note to self: Kd recorded for Nc1nc2c(ncn2[C@@H]2O[C@H](COP(=O)(O)OP(=O)(O)O)[C@@H](O)[C@H]2O)c(=O)[nH]1 was 4.9

====

The following molecules are shown together with reported Bmax, RbgA values.
# System tested: RbgA (Staphylococcus aureus, UniProt A0A0H2XK72)
# Assay remarks: DRaCALA binding of 32P-labeled nucleotides to 6×His-tagged RbgA
# Condition details: mean ± SEM; Bmax values indicate the fraction bound
Output: the number by itself.

Query smiles: Nc1nc2c(ncn2[C@@H]2O[C@H](COP(=O)(O)OP(=O)(O)OP(=O)(O)O)[C@@H](OP(=O)(O)OP(=O)(O)O)[C@H]2O)c(=O)[nH]1
System tested: RbgA (Staphylococcus aureus, UniProt A0A0H2XK72)
Bmax, RbgA: 0.4
--
Query smiles: Nc1nc2c(ncn2[C@@H]2O[C@H](COP(=O)(O)OP(=O)(O)O)[C@@H](O)[C@H]2O)c(=O)[nH]1
System tested: RbgA (Staphylococcus aureus, UniProt A0A0H2XK72)
Bmax, RbgA: 0.5
--
Query smiles: Nc1nc2c(ncn2[C@@H]2O[C@H](COP(=O)(O)OP(=O)(O)OP(=O)(O)O)[C@@H](O)[C@H]2O)c(=O)[nH]1
System tested: RbgA (Staphylococcus aureus, UniProt A0A0H2XK72)
Bmax, RbgA: 0.4

--- query ---
Note to self: Bmax, RbgA recorded for Nc1nc2c(ncn2[C@@H]2O[C@H](COP(=O)(O)OP(=O)(O)O)[C@@H](OP(=O)(O)OP(=O)(O)O)[C@H]2O)c(=O)[nH]1 was 0.6
